Here the recorded Kd is given for each entry.
- system under test: T1, hLTBP1-proTGFβ1 (human, UniProt Q14766 347-1721; P01137 30-390, limits assumed)
- T1 construct: Large latent complex (LLC): proTGFβ1 dimer disulfide-linked to one presenting molecule; recombinant, purified, biotinylated in BLI/SPR; The same id is used for the complex made by transfected cells in the reporter assays; also called human LTBP1-proTGFβ1 complex; LTBP1-ProTGFb1
- T1 sequence (Q14766 347-1721 limits assumed, chain 1 of 2): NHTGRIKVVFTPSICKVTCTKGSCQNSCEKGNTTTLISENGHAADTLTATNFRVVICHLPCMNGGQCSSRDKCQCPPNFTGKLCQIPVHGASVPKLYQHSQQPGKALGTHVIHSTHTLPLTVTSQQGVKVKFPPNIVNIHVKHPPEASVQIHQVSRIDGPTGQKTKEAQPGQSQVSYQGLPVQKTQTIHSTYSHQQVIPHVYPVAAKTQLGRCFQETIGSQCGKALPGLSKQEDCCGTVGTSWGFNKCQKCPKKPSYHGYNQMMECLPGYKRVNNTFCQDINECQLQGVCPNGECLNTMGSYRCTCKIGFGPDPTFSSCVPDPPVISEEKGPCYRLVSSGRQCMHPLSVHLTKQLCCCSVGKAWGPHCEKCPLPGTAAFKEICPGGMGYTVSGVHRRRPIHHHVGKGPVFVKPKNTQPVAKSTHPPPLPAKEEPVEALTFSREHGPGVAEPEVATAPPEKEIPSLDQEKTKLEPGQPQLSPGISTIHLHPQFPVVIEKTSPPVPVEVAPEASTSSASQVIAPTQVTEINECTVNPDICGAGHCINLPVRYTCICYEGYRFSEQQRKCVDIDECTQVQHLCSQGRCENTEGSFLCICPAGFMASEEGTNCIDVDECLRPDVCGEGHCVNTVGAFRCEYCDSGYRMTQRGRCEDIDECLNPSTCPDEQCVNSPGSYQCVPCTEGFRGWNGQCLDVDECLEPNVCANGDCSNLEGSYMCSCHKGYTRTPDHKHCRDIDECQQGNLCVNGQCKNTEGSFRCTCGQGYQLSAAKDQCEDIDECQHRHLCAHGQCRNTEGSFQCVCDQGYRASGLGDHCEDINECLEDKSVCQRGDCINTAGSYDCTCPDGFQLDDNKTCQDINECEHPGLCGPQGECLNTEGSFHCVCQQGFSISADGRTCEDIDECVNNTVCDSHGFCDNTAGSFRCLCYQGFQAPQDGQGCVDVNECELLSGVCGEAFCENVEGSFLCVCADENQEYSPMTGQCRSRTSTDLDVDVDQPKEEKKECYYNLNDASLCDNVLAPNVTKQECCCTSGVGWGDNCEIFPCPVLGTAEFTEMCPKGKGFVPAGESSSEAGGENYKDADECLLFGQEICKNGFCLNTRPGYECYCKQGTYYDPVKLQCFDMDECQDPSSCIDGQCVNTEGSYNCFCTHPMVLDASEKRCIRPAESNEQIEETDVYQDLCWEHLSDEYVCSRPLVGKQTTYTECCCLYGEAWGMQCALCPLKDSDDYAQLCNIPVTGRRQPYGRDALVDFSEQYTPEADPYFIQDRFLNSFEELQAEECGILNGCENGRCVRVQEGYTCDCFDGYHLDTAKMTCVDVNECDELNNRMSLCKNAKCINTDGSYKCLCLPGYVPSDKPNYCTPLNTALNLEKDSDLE
- T1 sequence (P01137 30-390 limits assumed, chain 2 of 2): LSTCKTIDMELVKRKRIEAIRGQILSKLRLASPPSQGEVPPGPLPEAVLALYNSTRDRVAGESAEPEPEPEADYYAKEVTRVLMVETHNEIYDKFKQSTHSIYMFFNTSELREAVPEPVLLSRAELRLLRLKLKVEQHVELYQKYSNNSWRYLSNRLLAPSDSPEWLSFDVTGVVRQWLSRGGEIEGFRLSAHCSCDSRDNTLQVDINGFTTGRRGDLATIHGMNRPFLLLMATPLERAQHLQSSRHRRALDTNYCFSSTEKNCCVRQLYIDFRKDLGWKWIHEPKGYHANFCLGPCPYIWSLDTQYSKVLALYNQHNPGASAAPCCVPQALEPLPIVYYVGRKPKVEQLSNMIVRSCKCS
- test description: MSD-SET, hIgG4
# output: bare number, implied unit pM

binder | Kd [pM]
Ab4 (antibody, V domains shown) VH: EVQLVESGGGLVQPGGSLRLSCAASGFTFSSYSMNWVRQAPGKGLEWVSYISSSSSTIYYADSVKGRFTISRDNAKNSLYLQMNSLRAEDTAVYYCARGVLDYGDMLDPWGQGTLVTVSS VL: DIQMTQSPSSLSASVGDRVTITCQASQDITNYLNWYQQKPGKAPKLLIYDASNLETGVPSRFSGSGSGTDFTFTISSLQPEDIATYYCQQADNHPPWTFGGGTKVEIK | 4600
Ab29 (antibody, V domains shown) VH: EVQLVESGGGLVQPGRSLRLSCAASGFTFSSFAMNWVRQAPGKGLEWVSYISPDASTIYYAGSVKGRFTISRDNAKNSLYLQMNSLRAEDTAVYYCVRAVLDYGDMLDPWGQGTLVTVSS VL: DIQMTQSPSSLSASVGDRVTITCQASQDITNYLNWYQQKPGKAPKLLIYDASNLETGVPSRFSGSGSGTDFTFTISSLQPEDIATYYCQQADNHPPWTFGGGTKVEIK | 12

Problem: Need Kd of Ab33 (antibody, V domains shown) VH: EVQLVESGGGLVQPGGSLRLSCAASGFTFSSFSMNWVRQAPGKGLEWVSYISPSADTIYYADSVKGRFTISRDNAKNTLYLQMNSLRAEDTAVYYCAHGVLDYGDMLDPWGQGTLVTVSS VL: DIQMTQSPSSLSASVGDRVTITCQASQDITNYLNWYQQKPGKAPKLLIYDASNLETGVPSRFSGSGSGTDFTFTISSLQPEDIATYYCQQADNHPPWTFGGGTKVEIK , thanks.
Result: 11
